Source of measurements: the supplement of paper PMC7877785

# methodDescription: self-splicing fitness, log relative to wild type (ln ratio); higher = more splicing; Tetrahymena group I intron in knt gene, E. coli kanamycin selection, DiMSum; sequences stand for … in CUCUCU…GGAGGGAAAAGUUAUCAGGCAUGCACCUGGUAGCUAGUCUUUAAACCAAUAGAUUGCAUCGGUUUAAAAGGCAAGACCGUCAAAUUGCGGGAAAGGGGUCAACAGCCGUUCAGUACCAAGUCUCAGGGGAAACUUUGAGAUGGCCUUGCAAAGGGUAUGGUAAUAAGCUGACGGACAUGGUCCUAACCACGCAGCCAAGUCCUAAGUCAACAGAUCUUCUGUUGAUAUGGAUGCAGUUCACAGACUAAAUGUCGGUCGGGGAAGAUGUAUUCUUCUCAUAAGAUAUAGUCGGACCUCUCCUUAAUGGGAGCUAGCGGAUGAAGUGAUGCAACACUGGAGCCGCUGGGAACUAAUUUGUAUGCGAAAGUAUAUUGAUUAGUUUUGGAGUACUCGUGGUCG;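 note: selection with 25 µg/mL kanamycin versus none on LB agar overnight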
# particulars: 37 °C
A collection of sequences and their measured self-splicing fitness (ln)
Just the number, please, no unit after it.

// below: answered sequences
CGCUAGCAAUAUUACGACAG    0.297
CUCUAGCAAUAUUACGACGG    -1.98
CGUUAGCAAUAUUACGCAAU    -1.02
UCCCAGCAAUAUUACGCGAA    -1.07
CCGUAGCAAUAUUACGACGU    -0.205

Suppose we examine the sequence UGCGAGCAAUAUUACGACUC ; what self-splicing fitness (ln) value has been reported?
-2.25

Suppose we examine the sequence GAUCAGCAAUAUUACGGCCG ; what self-splicing fitness (ln) value has been reported?
-0.245

Suppose we examine the sequence CACCAGCAAUAUUACGGGAU ; what self-splicing fitness (ln) value has been reported?
-1.9

Suppose we examine the sequence GAAGAGCAAUAUUACGUAGG ; what self-splicing fitness (ln) value has been reported?
-1.99

Suppose we examine the sequence GCUUAGCAAUAUUACGCUUU ; what self-splicing fitness (ln) value has been reported?
-0.413

Suppose we examine the sequence UGGAAGCAAUAUUACGACGU ; what self-splicing fitness (ln) value has been reported?
-0.761

Suppose we examine the sequence AAGCAGCAAUAUUACGCUUU ; what self-splicing fitness (ln) value has been reported?
-2.87

Suppose we examine the sequence AAGAAGCAAUAUUACGUGAG ; what self-splicing fitness (ln) value has been reported?
-0.828

Suppose we examine the sequence GAGGAGCAAUAUUACGGCAC ; what self-splicing fitness (ln) value has been reported?
-1.64

Suppose we examine the sequence CCGAAGCAAUAUUACGUUGC ; what self-splicing fitness (ln) value has been reported?
-2.66

Suppose we examine the sequence CAUGAGCAAUAUUACGGGGG ; what self-splicing fitness (ln) value has been reported?
-2.64

Suppose we examine the sequence AAUUAGCAAUAUUACGCGGA ; what self-splicing fitness (ln) value has been reported?
-1.3

Suppose we examine the sequence UGUAAGCAAUAUUACGAUGG ; what self-splicing fitness (ln) value has been reported?
-0.756

Suppose we examine the sequence CCGGAGCAAUAUUACGGCUA ; what self-splicing fitness (ln) value has been reported?
-0.58
